# protocol.description: Half life in Sprague-Dawley rat at 0.75 mg/kg, iv measured up to 24 hrs
# Type: ADME, organism-based
# experimental.setup: in vivo
assay.endpoint: half-life (h)
Return type: number; implicit unit h.

Sample CNCc1cc(-c2ccccc2F)n(S(=O)(=O)c2cccnc2)c1 ; half-life observed: 1.2

###

# protocol.description: Inhibition of rabbit stomach K+ stimulated H(+)/K(+) ATPase activity incubated for 30 mins in presence of ATP and KCl by malachite green reagent based assay
# Assay type: tissue-based, Oryctolagus cuniculus
assay.endpoint: IC50 (nM)
Return type: number; implicit unit nM.

>>> val("CN1Cc2nn(Cc3cccc([N+](=O)[O-])c3)c(-c3ccccc3F)c2C1")
140
>>> val("CN1Cc2nn(Cc3cccc(-c4cccc(C#N)c4)c3)c(-c3ccccc3F)c2C1")
396
>>> val("CN1Cc2nn(Cc3cccc(O)c3)c(-c3cccc(O)c3)c2C1")
1240
>>> val("CN1Cc2nn(S(=O)(=O)c3ccccc3)c(-c3ccccc3F)c2C1")
1030
>>> val("CN1Cc2nn(Cc3cccc(-c4ccc(F)cc4)c3)c(-c3ccccc3F)c2C1")
340

Sample CN1Cc2nn(Cc3cccc(N4CCOCC4)c3)c(-c3ccccc3F)c2C1 ; IC50 observed: 410

Sample CN1Cc2nn(Cc3cccc(OCC(N)=O)c3)c(-c3ccccc3F)c2C1 ; IC50 observed: 747

Sample CN1Cc2nn(Cc3cccc(-c4ccccc4F)c3)c(-c3ccccc3F)c2C1 ; IC50 observed: 376

Sample CN1Cc2nn(Cc3ccoc3)c(-c3ccccc3F)c2C1 ; IC50 observed: 3200

Sample CN1Cc2nn(Cc3cccc(O)c3)c(-c3cccc(Cl)c3)c2C1 ; IC50 observed: 6350
